target: Ubiquitin carboxyl-terminal hydrolase 2 (Homo sapiens); assay: Confirmation Assay for Inhibitors of Ubiquitin-specific Protease USP2a Using CHOP2 as the Reporter; conditions: USP2 core, Ub-CHOP2 coupled reporter fluorescence; series mostly up to 38.3 µM; further: nearly all actives have a fitted effect of over 55% in size
Records with an inconclusive call do not appear. Active and inactive are the calls of the source. The call rests on the fitted dose curve; in most records, active means well fitted inhibition curve with a large enough effect; inconclusive means small, poorly fitted or top-dose-only effect, or effect the other way; inactive means flat fitted curve, though single readings scatter.
Give one outcome, nothing more. List: Y = active, N = inactive

* CC(C)CC(c1nnnn1CC1CCCO1)N1CCN(c2nc3ccccc3s2)CC1 (stereo not drawn) | N
* Cc1ccc(NC(=O)c2cc3c(=O)oc4ccccc4c3s2)nc1 | N
* COc1ccc(/C=C2/SC(=S)N(c3ccc(S(=O)(=O)Nc4nccs4)cc3)C2=O)cc1 | Y
* Cc1ccc(N(CC(=O)N/N=C/c2ccco2)S(=O)(=O)c2ccccc2)cc1 | N
* Nc1ccc2nc(-c3ccc(N)c(Cl)c3)[nH]c2c1 | N

Per the records of this test, what outcome belongs to `C=CCn1c(N)c(C(=O)NCc2cccnc2)sc1=S` ?
N

Just curious, what result did `COc1ccccc1-n1c(SCC(=O)Nc2ccc(C)cc2)nc(O)cc1=O` get here?
N

Hi team, can someone confirm the assay call for `CC(=O)COc1ccc2c(-c3ccccc3)cc(=O)oc2c1` ?
N

Hello, I am checking results. What call was entered for `COc1ccc2[nH]c(=O)c(CN(C)C(=O)C3CCCCC3)cc2c1` ?
N

So what was the verdict on O=C(CSc1nccc(=O)[nH]1)N1N=C2/C(=C/c3ccco3)CCCC2C1c1ccco1 (stereo not drawn) in this test?
N

Recorded call for `COc1cc2cc(CN(CCN3CCCC3)C(=O)Nc3ccc(F)cc3)c(=O)[nH]c2cc1OC` ?
N

Please indicate how the test categorized `CC(C)CCn1c(CN2CCN(C(=O)c3ccco3)CC2)nc2c1c(=O)n(C)c(=O)n2C` .
N
